# experimentalTarget: Huntingtin (Homo sapiens)
# assaySummary: mutant huntingtin-calmodulin interaction inhibitors – biochemical, AlphaScreen, primary screen (AID 1671202);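 note: 0% = both proteins with DMSO and 100% = one protein alone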
# appliedConditions: AlphaScreen His-mHTT/GST-CaM binding, luminescence; at 15 µM, active compounds read high
Out of some 190,000 compounds screened, about 6,900 (3.6%) were called active. What follows is part of a selection rich in actives, with near analogues and random picks from the rest.
Answer each item with its documented inhibition.

Ask | Report measured inhibition; entry is CCc1nc2c(NC(=O)Nc3cccc(C)c3)cccn2n1
Reply | -3.6% (inactive)

Ask | Report measured inhibition; entry is COCCNC(=O)c1ccc2c(c1)ncn2-c1ccc(C)c(Cl)c1
Reply | 24% (inactive)

Ask | Report measured inhibition; entry is COc1cccc(C(=O)Nc2c3c(nn2-c2ccc(Cl)cc2)CSC3)c1
Reply | 41% (inactive)

Ask | Report measured inhibition; entry is O=C(Nc1c2c(nn1-c1ccc(Cl)cc1)CSC2)c1ccc(F)cc1
Reply | 21% (inactive)

Ask | Report measured inhibition; entry is COc1ccc(NS(=O)(=O)c2ccc(N3C(=O)CCC3=O)cc2)c(OC)c1
Reply | -10.9% (inactive)

Ask | Report measured inhibition; entry is CN(C)c1ncccc1C(=O)Nc1ccccc1F
Reply | -5.3% (inactive)

Ask | Report measured inhibition; entry is CN(C)C(=O)CSc1nnc(N)s1
Reply | -4.07% (inactive)

Ask | Report measured inhibition; entry is C=CCOc1ccc(/C=C2\SC(=O)N(c3ccccc3)C2=O)cc1OC
Reply | 3% (inactive)

Ask | Report measured inhibition; entry is O=C(NCc1cccnc1)c1cc(-c2ccccn2)nc2ccccc12
Reply | 34% (inactive)

Ask | Report measured inhibition; entry is COc1ccccc1-c1nc(C2CCN(C(=O)c3cc4cc(Cl)ccc4[nH]3)CC2)no1
Reply | 80.8% (active)

Ask | Report measured inhibition; entry is CC(C)C(=O)Nc1c2c(nn1-c1ccc(Cl)cc1)CSC2
Reply | -5% (inactive)

Ask | Report measured inhibition; entry is CCOc1cccc(-c2cc(C(=O)NCCN3CCOCC3)c3ccccc3n2)c1
Reply | 11.4% (inactive)

Ask | Report measured inhibition; entry is COc1cc(C=C2SC(=S)N(c3ccc(O)cc3)C2=O)ccc1O
Reply | 58.5% (active)

Ask | Report measured inhibition; entry is Cc1cc([N+](=O)[O-])nn1CCCC(=O)Nc1cc(Cl)ccc1O
Reply | 2% (inactive)

Ask | Report measured inhibition; entry is COc1ccccc1-c1nc(C2CCN(C(=O)C3COc4ccccc4O3)CC2)no1 (stereo not drawn)
Reply | 34.9% (inactive)

Ask | Report measured inhibition; entry is Cc1cc(C2CCCN2C(=O)c2cc(-c3ccccc3F)no2)no1 (stereo not drawn)
Reply | -0.13% (inactive)

Ask | Report measured inhibition; entry is CN(C)c1ccc(C(=O)NC2CCN(c3ccccc3)C2=O)cc1 (stereo not drawn)
Reply | -3.2% (inactive)

Ask | Report measured inhibition; entry is Cc1cccc(-n2nc3c(c2NC(=O)c2c(F)cccc2F)CSC3)c1C
Reply | 5% (inactive)

Ask | Report measured inhibition; entry is CCOc1ccccc1Oc1c(C)oc2c(CN(CC)CC)c(O)ccc2c1=O
Reply | 3.7% (inactive)

Ask | Report measured inhibition; entry is O=C1CC(c2ccccc2Cl)=Nc2ccccc2N1
Reply | 5% (inactive)

Ask | Report measured inhibition; entry is CN(C)c1ccc(C(O)(c2ccccc2)c2ccccc2)cc1
Reply | 76% (active)

Ask | Report measured inhibition; entry is Cc1ccccc1-n1nc2c(c1NC(=O)/C=C/c1ccco1)CSC2
Reply | 98% (active)

Ask | Report measured inhibition; entry is COc1ccccc1-c1nc(C2CCN(C(=O)c3ccc(Cl)cc3)CC2)no1
Reply | 38.7% (inactive)
